assay: in vitro; conditions: human, Caco-2
measuredQuantity: Papp A→B

>  <compound>
C[Si](Cl)(Cl)CCC#N

>  <Papp A→B>
46 nm/s

$$$$
>  <compound>
CC(C#N)C[Si](C)(Cl)Cl (stereo not drawn)

>  <Papp A→B>
61 nm/s

$$$$

--- query ---
For the compound shown here, CCC(C#N)C[Si](C)(Cl)Cl (stereo not drawn) , give the reported Papp A→B.
65 nm/s

###

test system: NF-M17; assay: CD titration of NF-M17 peptide/aluminum with silicon compounds (Example 1); format: biochemical, human
measuredQuantity: Restore original spectra?

Would you please look over these solved cases?
>  <smilesCode>
CC[Si](O)(CC)CC

>  <measuredQuantity>
Restore original spectra?

>  <assayResult>
No

$$$$
>  <smilesCode>
CC(C)[Si](Cl)(Cl)C(C)C

>  <measuredQuantity>
Restore original spectra?

>  <assayResult>
Yes

$$$$
>  <smilesCode>
CC[Si](O)(CC)Cc1ccccc1

>  <measuredQuantity>
Restore original spectra?

>  <assayResult>
No

$$$$
>  <smilesCode>
C[Si](Cl)(Cl)c1ccccc1

>  <measuredQuantity>
Restore original spectra?

>  <assayResult>
Yes

$$$$
>  <smilesCode>
CC[Si](Cl)(Cl)CC

>  <measuredQuantity>
Restore original spectra?

>  <assayResult>
Yes

$$$$
>  <smilesCode>
CC(C)(C)[Si](C)(C)O

>  <measuredQuantity>
Restore original spectra?

>  <assayResult>
No

$$$$

For the compound shown here, N#CCCC[Si](Cl)(Cl)Cl , give the reported Restore original spectra?.
Yes

For the compound shown here, NCCC[Si](O)(O)O , give the reported Restore original spectra?.
Yes

For the compound shown here, CCCCCC[Si](C)(Cl)Cl , give the reported Restore original spectra?.
Yes

###

target: A-beta1-42 peptide (Homo sapiens); format: biochemical
Sequence (P05067 672-713): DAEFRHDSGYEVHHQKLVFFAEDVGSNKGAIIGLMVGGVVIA
measuredQuantity: effect of the metal on the A-beta1-42 CD spectrum

>  <smilesCode>
[Fe+2]

>  <assayResult>
minor or no effects

$$$$
>  <smilesCode>
[Zn]

>  <assayResult>
minor or no effects

$$$$
>  <smilesCode>
[Cu]

>  <assayResult>
strong effects

$$$$
>  <smilesCode>
[Fe+3]

>  <assayResult>
strong effects

$$$$
